- System: MDA-MB-231
- Assay name: NCI tumour cell line growth inhibition, 48 h
Active and inactive are the calls of the source. Cut-off read from the data, not from the text of the source: active = GI50 up to about 1.1 µM and inactive = higher. Where a SMILES comes first, the peptide text is derived from it. The star is where a group is joined. Cbz = O=C(OCc1ccccc1)*; Bn = c1ccc(C*)cc1
Parameter measured: GI50

[[record]]
compound = "COc1ccc(OC)c2c1C=C[C@H](C1(C)SCCS1)C2C(C)=O (stereo partly drawn)"
parameter_measured = "GI50"
measured_value = "32.2 µM (inactive)"

[[record]]
compound = "COc1ccc(NC(S)=Nc2ccccc2)cc1"
parameter_measured = "GI50"
measured_value = "> 100 µM (inactive)"

[[record]]
compound = "COc1ccc(CC2c3cc(OC)c(OC)c(OC)c3CC[N+]2(C)C)cc1Oc1ccc(CC2c3cc4c(c(OC)c3CC[N+]2(C)C)OCO4)cc1 (stereo not drawn)"
parameter_measured = "GI50"
measured_value = "> 100 µM (inactive)"

[[record]]
compound = "O=C(CCC=C(S(=O)(=O)c1ccccc1)S(=O)(=O)c1ccccc1)c1ccccc1"
parameter_measured = "GI50"
measured_value = "8.04 µM (inactive)"

[[record]]
compound = "CC(NNC(=O)c1cc[n+]([BH2-]C#N)cc1)c1ccccc1 (stereo not drawn)"
parameter_measured = "GI50"
measured_value = "> 100 µM (inactive)"

[[record]]
compound = "COP(=O)(OC)/C(=C/c1c[nH]c2ccccc12)C(=O)O"
parameter_measured = "GI50"
measured_value = "> 100 µM (inactive)"


Looking for the measured GI50 of COC(=O)C(Cc1ccc(O)cc1)NC(=O)C(COCc1ccccc1)NC(=O)OCc1ccccc1 (stereo not drawn) (Cbz-Ser(Bn)-Tyr-OMe; configuration not given here) , can you help?
18.8 µM (inactive)

What do you get for CC(C)(C)c1ccc2c(c1)CNCCNCCNCc1cc(C(C)(C)C)ccc1OCC1(CO2)COc2ccc(C(C)(C)C)cc2CNCCNCCNCc2cc(C(C)(C)C)ccc2OC1 ?
1.41 µM (inactive)
